Data provenance is PubChem BioAssay (NCI).

# Tested on: HCC-2998 colon
# experimental protocol: NCI tumour cell line growth inhibition, 48 h; in the data active = GI50 below about 0.43 µM; inactive = the rest
Classes used: YES = active, NO = inactive

{"compound": "OC(COc1cccc2ccccc12)CN1CCN(c2ccccc2Cl)CC1 (centres undefined)", "qualitative label": "NO"}
{"compound": "ClCC#CCSc1ncnc2c1ncn2CC#CCCl", "qualitative label": "NO"}
{"compound": "CC(=O)C1(O)Cc2c(O)c3c(c(O)c2C(OC2CC(N)C(O)C(C)O2)C1)C(=O)c1ccccc1C3=O (centres undefined)", "qualitative label": "YES"}
{"compound": "Cn1ccnc1C[N-]Cc1nccn1C.O=[N+]([O-])[O-].O=[N+]([O-])[O-].[Cu+2]", "qualitative label": "NO"}
{"compound": "O=C1c2ccn(CCCCN3CCC(O)CC3)c2C(=O)c2c1c(O)c1ccccc1c2O", "qualitative label": "NO"}
{"compound": "O=C(CCl)Nc1cc(O)c2c(c1)C(=O)c1cccc(O)c1C2=O", "qualitative label": "NO"}
{"compound": "O=[As]c1ccc(C(=O)c2ccc(Oc3ccccc3)cc2)cc1 (centres undefined)", "qualitative label": "YES"}
{"compound": "Cc1c(C(=O)O[C@H]2[C@@H]3[C@H](C)CC[C@H]3[C@]3(C)O[C@@]2(C2CCCCC2)C[C@H]3OC(=O)CO)ccc2ccccc12", "qualitative label": "NO"}
{"compound": "COc1ccc2c(c1)CC[C@@H]1[C@@H]2CC[C@]2(C)C=C(/C=C/C(=O)c3ccccc3)C[C@@H]12", "qualitative label": "NO"}
